This collection of values is drawn from patent US11214803B2.

- EXPERIMENTAL PROTOCOL: Tolerability in Sprague-Dawley rats, body and organ weights (Example 20)
- Assay type: in vivo
- EXPERIMENTAL SETUP: male Sprague-Dawley rats, 50 mg/kg s.c. weekly for 6 weeks (7 doses), end of study
Strand notation (5' to 3'): a small letter for the sugar, then the base; units joined by * are phosphorothioate-linked, units joined directly phosphodiester-linked; [ ] holds rarer units or linkages, { } end groups; capitals alone tell only the bases. k = constrained ethyl (cEt); [5mC] = 5-methylcytosine; d = 2'-deoxy (DNA)
Give Liver weight for every item shown.

>  <SUBSTANCE>
1076453 (GTAATATTGCAATCTG; 3-10-3 cEt gapmer, further chemistry not given here) [compound 1076453]

>  <Liver weight>
16 g

$$$$
>  <SUBSTANCE>
1074755 (k[5mC]*kA*k[5mC]*dT*dT*dT*dT*dA*d[5mC]*dA*dT*dT*dA*kG*kG*kA; antisense) [compound 1074755]

>  <Liver weight>
16 g

$$$$

Now, please, on to the next substance.
Query (substance): 1076481 (k[5mC]*kT*kA*dA*dG*dT*dA*dA*dG*dG*dT*dT*dT*k[5mC]*k[5mC]*k[5mC]) [compound 1076481] ; field requested: Liver weight
14 g
